Test system: [^3H]dUMP-labelled DNA
Experiment: Kinetic parameters on uracil substrate
Type: biochemical
Settings: U-ss substrate; calculated from Vmax assuming Mr=25000
Reported values of Kcat for individual entries
Use s⁻¹ as the unit, but write only the number.

Tyr147Phe: human UDG (UNGΔ84) mutant with Tyr147 replaced by Phe (protein) MGVFCLGPWGLGRKLRTPGKGPLQLLSRLCGDHLQAIPAKKAPAGQEEPGTPPSSPLSAEQLDRIQRNKAAALLRLAARNVPVGFGESWKKHLSGEFGKPYFIKLMGFVAEERKHYTVYPPPHQVFTWTQMCDIKDVKVVILGQDPFHGPNQAHGLCFSVQRPVPPPPSLENIYKELSTDIEDFVHPGHGDLSGWAKQGVLLLNAVLTVRAHQANSHKERGWEQFTDAVVSWLNQNSNGLVFLLWGSYAQKKGSAIDRKRHHVLQTAHPSPLSVYRGFFGCRHFSKTNELLQKSGKKPIDWKEL ... 39.5
Asn204Gln: human UDG (UNGΔ84) mutant with Asn204 replaced by Gln (protein) MGVFCLGPWGLGRKLRTPGKGPLQLLSRLCGDHLQAIPAKKAPAGQEEPGTPPSSPLSAEQLDRIQRNKAAALLRLAARNVPVGFGESWKKHLSGEFGKPYFIKLMGFVAEERKHYTVYPPPHQVFTWTQMCDIKDVKVVILGQDPYHGPNQAHGLCFSVQRPVPPPPSLENIYKELSTDIEDFVHPGHGDLSGWAKQGVLLLQAVLTVRAHQANSHKERGWEQFTDAVVSWLNQNSNGLVFLLWGSYAQKKGSAIDRKRHHVLQTAHPSPLSVYRGFFGCRHFSKTNELLQKSGKKPIDWKEL ... 1.48
Tyr147Ala (protein) MGVFCLGPWGLGRKLRTPGKGPLQLLSRLCGDHLQAIPAKKAPAGQEEPGTPPSSPLSAEQLDRIQRNKAAALLRLAARNVPVGFGESWKKHLSGEFGKPYFIKLMGFVAEERKHYTVYPPPHQVFTWTQMCDIKDVKVVILGQDPAHGPNQAHGLCFSVQRPVPPPPSLENIYKELSTDIEDFVHPGHGDLSGWAKQGVLLLNAVLTVRAHQANSHKERGWEQFTDAVVSWLNQNSNGLVFLLWGSYAQKKGSAIDRKRHHVLQTAHPSPLSVYRGFFGCRHFSKTNELLQKSGKKPIDWKEL ... 0.01

molecule Asn204Asp: human UDG mutant, codon 204 Asn changed to Asp; cytosine-DNA glycosylase (CDG) (protein) MGVFCLGPWGLGRKLRTPGKGPLQLLSRLCGDHLQAIPAKKAPAGQEEPGTPPSSPLSAEQLDRIQRNKAAALLRLAARNVPVGFGESWKKHLSGEFGKPYFIKLMGFVAEERKHYTVYPPPHQVFTWTQMCDIKDVKVVILGQDPYHGPNQAHGLCFSVQRPVPPPPSLENIYKELSTDIEDFVHPGHGDLSGWAKQGVLLLDAVLTVRAHQANSHKERGWEQFTDAVVSWLNQNSNGLVFLLWGSYAQKKGSAIDRKRHHVLQTAHPSPLSVYRGFFGCRHFSKTNELLQKSGKKPIDWKEL , Kcat observed: 0.25
